Recorded measurements of Composite Z score, PDE4B3, one per entry
- TARGET DESC: PDE4B3 (Mus musculus)
- Construct: targets used in the assays are full-length proteins (as opposed to simply the catalytic domain); expressed in transfected cells; host or cells: Schizosaccharomyces pombe, PDE gene integrated in place of cgs2
- Sequence (Q8VBU5 1-721): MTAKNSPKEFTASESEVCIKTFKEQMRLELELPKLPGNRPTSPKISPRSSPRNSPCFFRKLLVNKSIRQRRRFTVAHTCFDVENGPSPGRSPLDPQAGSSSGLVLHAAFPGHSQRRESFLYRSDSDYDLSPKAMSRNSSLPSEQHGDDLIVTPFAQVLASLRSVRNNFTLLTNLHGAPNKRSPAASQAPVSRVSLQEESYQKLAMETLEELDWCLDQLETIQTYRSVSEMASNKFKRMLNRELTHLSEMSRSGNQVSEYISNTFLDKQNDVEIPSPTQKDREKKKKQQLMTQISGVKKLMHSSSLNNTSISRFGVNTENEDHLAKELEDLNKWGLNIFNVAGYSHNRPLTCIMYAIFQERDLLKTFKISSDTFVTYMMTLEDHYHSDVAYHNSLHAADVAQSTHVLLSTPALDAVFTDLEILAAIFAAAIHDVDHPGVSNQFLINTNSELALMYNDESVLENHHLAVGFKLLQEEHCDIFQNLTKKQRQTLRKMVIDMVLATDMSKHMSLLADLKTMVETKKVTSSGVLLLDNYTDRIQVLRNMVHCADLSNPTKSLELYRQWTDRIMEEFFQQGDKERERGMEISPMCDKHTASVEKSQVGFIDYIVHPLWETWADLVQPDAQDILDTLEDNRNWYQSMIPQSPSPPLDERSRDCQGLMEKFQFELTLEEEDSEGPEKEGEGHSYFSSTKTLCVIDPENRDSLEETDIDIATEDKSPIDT
- METHOD NOTES: 5FOA growth assay in fission yeast strain expressing PDE4B3
- Type: cell-based, Murine
- CONDITION SET: high throughput 5FOA growth screen

>  <COMPOUND>
Cc1sc2ncnc(N3CCN(CCO)CC3)c2c1C

>  <Composite Z score, PDE4B3>
0.6718

$$$$
>  <COMPOUND>
Cc1nc(NCCc2ccccc2)c2c3c(sc2n1)CCCC3

>  <Composite Z score, PDE4B3>
0.0156

$$$$
>  <COMPOUND>
c1nc(NCCCN2CCOCC2)c2c3c(sc2n1)CCCC3

>  <Composite Z score, PDE4B3>
−0.998

$$$$
>  <COMPOUND>
CCC(C)NC(=O)c1sc2nc(C)nc(N(C)c3ccc(C(C)C)cc3)c2c1C (stereo not shown)

>  <Composite Z score, PDE4B3>
−0.456

$$$$
>  <COMPOUND>
CCCCN(CC)C(=O)c1sc2ncnc(N3CCN(c4ccc(OC)cc4)CC3)c2c1C

>  <Composite Z score, PDE4B3>
0.3145

$$$$
>  <COMPOUND>
CCN(CC)c1ncnc2sc3c(c12)CCC(C#N)(c1ccccc1)C3 (stereo not shown)

>  <Composite Z score, PDE4B3>
−0.752

$$$$
>  <COMPOUND>
O=C(Nc1ncnc2sc3c(c12)CCCC3)C(F)(F)F

>  <Composite Z score, PDE4B3>
0.5128

$$$$
>  <COMPOUND>
COc1ccc(NC(=O)c2sc3nc(C)nc(N(C)c4ccc(C(C)C)cc4)c3c2C)c(OC)c1

>  <Composite Z score, PDE4B3>
−0.545

$$$$
>  <COMPOUND>
c1nc(N2CCCCC2)c2c3c(sc2n1)CCC3

>  <Composite Z score, PDE4B3>
4.7765

$$$$
>  <COMPOUND>
Cc1c(C(=O)Nc2ccc(F)cc2F)sc2ncnc(N(C)c3ccccc3)c12

>  <Composite Z score, PDE4B3>
78.662

$$$$
>  <COMPOUND>
CC1CCc2c(sc3nc(SCC(N)=O)nc(NCc4ccccc4)c23)C1 (stereo not shown)

>  <Composite Z score, PDE4B3>
47.874

$$$$
>  <COMPOUND>
CCNc1nc(SCC(=O)OCC)nc2sc3c(c12)CCC(C)C3 (stereo not shown)

>  <Composite Z score, PDE4B3>
9.0572

$$$$
>  <COMPOUND>
CNc1nc(=S)[nH]c2sc3c(c12)CCCC3

>  <Composite Z score, PDE4B3>
0.2798

$$$$
>  <COMPOUND>
Cc1nc(N2CCCCC2)c2c(C)c(C(=O)Nc3cccc(C(F)(F)F)c3)sc2n1

>  <Composite Z score, PDE4B3>
16.5

$$$$
>  <COMPOUND>
Cc1sc2ncnc(NC3CCN(Cc4ccccc4)CC3)c2c1C

>  <Composite Z score, PDE4B3>
−0.516

$$$$
>  <COMPOUND>
Cc1c(C(=O)N2CCC3(CC2)OCCO3)sc2ncnc(N(C)c3ccccc3)c12

>  <Composite Z score, PDE4B3>
−1.206

$$$$
>  <COMPOUND>
COc1cccc(NC(=O)c2sc3ncnc(N4CCc5ccccc5C4)c3c2C)c1

>  <Composite Z score, PDE4B3>
4.5126

$$$$
>  <COMPOUND>
Cc1nc(N2CCCN(C)CC2)c2c3c(sc2n1)CCC3

>  <Composite Z score, PDE4B3>
0.6059

$$$$
>  <COMPOUND>
OCCN(CCO)c1ncnc2sc3c(c12)CCCC3

>  <Composite Z score, PDE4B3>
0.8257

$$$$

// provenance: patent US20100227853A1
